Where these numbers come from: patent US20260258083A1

- assay-system: T1, FLT3xCD3 TCE SEQ ID NO 93
- T1 construct: Single-chain scFv-scFv-scFc T cell engager; also called FLT3×CD3ε TCE; FLT3_7 A8xCD3-scFc Bispecific HLE molecule
- assay-comment: SPR solution competition, peptide titrated into fixed TCE, free TCE read on peptide capture surface
Where no end group is shown, it is not given here. [ ]: non-standard residue; d: D form. pGlu = O=C1CC[C@@H](C(=O)O)N1
Cut-off 4 nM on IC50: below means YES, at or above means NO.

binder	classification
[pGlu]DGNEELKPGC (Position 1 is written E for pGlu) [pGlu-DGNEELKPGC]	NO
[pGlu]DGVEELKGC (Position 1 is written E for pGlu) [pGlu-DGVEELKGC]	NO
[pGlu]DGIEELKGC (Position 1 is written E for pGlu) [pGlu-DGIEELKGC]	YES
[pGlu]DGNEELKGC (also called ID 14974) [pGlu-DGNEELKGC]	YES
[pGlu]DGNEELPKPGC (Position 1 is written E for pGlu) [pGlu-DGNEELPKPGC]	YES
[pGlu]DGTEELKGC (Position 1 is written E for pGlu) [pGlu-DGTEELKGC]	NO
